Test system: mice
Experiment Notes: Neuropharmacological Assay (SmartCube)
Assay type: in vivo
Settings: mice, i.p. 15 min before test, most efficacious dose(s) of 3 doses
Test Readout: SD: sedative hypnotic (SmartCube probability)

[
  {
    "Compound": "Cc1cccc2c1CCO[C@H]2CN [Example 73, (R)-(5-methylisochroman-1-yl)methanamine]",
    "System Name": "mice",
    "Obs Value": "++ (5%≤ ++ <25%)"
  },
  {
    "Compound": "NC[C@@H]1OCCc2cc(F)ccc21 [Example 34, (R)-(6-fluoroisochroman-1-yl)methanamine]",
    "System Name": "mice",
    "Obs Value": "+ (LOQ≤ + <5%)"
  },
  {
    "Compound": "CNC[C@H]1OCCc2c(F)cccc21",
    "System Name": "mice",
    "Obs Value": "+ (LOQ≤ + <5%)"
  },
  {
    "Compound": "CNC[C@H]1OCCc2c1ccc1c2OCO1",
    "System Name": "mice",
    "Obs Value": "+ (LOQ≤ + <5%)"
  },
  {
    "Compound": "CNC[C@H]1OCCc2c(O)cc3c(c21)OCO3 (single isomer, unassigned)",
    "System Name": "mice",
    "Obs Value": "++ (5%≤ ++ <25%)"
  }
]
